# Experiment notes: protein stability index of a GFP-peptide fusion (yeast GPS) (PSI 1-4); higher = more stable; sorted into four equal gates, so the index is relative within each strain
# Reported conditions: ubr1∆
Endpoint name: protein stability index
Reply briefly: the number, and no unit.

# protein stability index lookup, item TDGDSILYYDVLFITPD [BRR2] 2.94

Note, next up: FTRIFLPIYDSLMSSQN [SIR3] 2.21

----------
# Experiment notes: protein stability index of a GFP-peptide fusion (yeast GPS) (PSI 1-4); higher = more stable; sorted into four equal gates, so the index is relative within each strain
# Reported conditions: doa10∆
Endpoint name: protein stability index
Reply briefly: the number, and no unit.

The examples below pair each entry with its known result.
Seq text: TTNMNVNNCIWALKSSL [RGR1]
Observed value: 2.26
//
Seq text: LHVLPTLNSRALSGLYY [SNM1]
Observed value: 2.45
//
Seq text: RGTIPLLERYIGNLITR [PRP8]
Observed value: 1.52

# protein stability index lookup, item DKRIVISIDSWPTTHKY [DIS3] 1.92

Note, next up: EITSVLSNLHESNKRYR [SNF12] 3.1

----------
# Experiment notes: protein stability index of a GFP-peptide fusion (yeast GPS) (PSI 1-4); higher = more stable; sorted into four equal gates, so the index is relative within each strain
# Reported conditions: doa10∆
Endpoint name: protein stability index
Reply briefly: the number, and no unit.

The examples below pair each entry with its known result.
Seq text: YIDEMYNHNDGGDGRDY [RRI1]
protein stability index: 2.47
--
Seq text: QTLLANSDHAKFTIEPG [SNF2]
protein stability index: 2.35
--
Seq text: SLVALGIDPQDLKKLNL [CDC53]
protein stability index: 2.84
--
Seq text: KGYVFKISGGNDKQGFP [RPS6A]
protein stability index: 2.62
--
Seq text: EKVFNAYPAAREQFLNA [FAS1]
protein stability index: 3.16

# protein stability index lookup, item ILDPSTEYCVGDYVAYQ [YMR129W/POM152] 2.83

Note, next up: QLNASISLIPELSVVLS [RRI2] 2.67

Note, next up: ILKTLERSICALGEFAD [YML031W/NDC1] 2.58

----------
# Experiment notes: protein stability index of a GFP-peptide fusion (yeast GPS) (PSI 1-4); higher = more stable; sorted into four equal gates, so the index is relative within each strain
# Reported conditions: doa10∆
Measured protein stability index determines class: lower segment (below 2), middle segment (2 to below 3), upper segment (3 or more)

Seq text: RATPATLTELKDALSNS [SRB2]
Assigned category: upper segment
//
Seq text: QAIPKFQMNCYAKEDAF [RPN2]
Assigned category: lower segment
//
Seq text: QRTCLMTVTFLILAGQV [YCS4]
Assigned category: lower segment

Please turn your attention to the following entry.
Category of FKNDFNSFYYTSLLYLS [RPN9] : lower segment

----------
# Experiment notes: protein stability index of a GFP-peptide fusion (yeast GPS) (PSI 1-4); higher = more stable; sorted into four equal gates, so the index is relative within each strain
# Reported conditions: san1∆
Measured protein stability index determines class: group 1 = under 2, group 2 = from 2 up to 3, group 3 = 3 and over

These solved cases illustrate the format of a correct answer.
Seq text: ARVTGGMKVKADRDESS [RPS14B]
Assigned category: group 3
--
Seq text: PIFNYIFTEKIYKSIFN [YJL039C/NUP192]
Assigned category: group 1

Category of TAVAFWSWDIAVDNCAI [HRT1] : group 1

Note, next up: RRADVKTATVKINKKLN [RPL38] group 2

Note, next up: SAGLFGSKPAGGTSLFG [YGL172W/NUP49] group 2

Note, next up: QEGMNECPGHFGHIDLA [RPO21] group 3

Note, next up: VAMCFVINKLDRLILDL [SNU114] group 2

Note, next up: RKAYFTAPSSQRRVLLS [RPL26A] group 2

Note, next up: PRMYHIGLRQFQQIQYE [POP1] group 2

----------
Collected protein stability index values appear next to each entry.
# Experiment notes: protein stability index of a GFP-peptide fusion (yeast GPS) (PSI 1-4); higher = more stable; sorted into four equal gates, so the index is relative within each strain
# Reported conditions: doa10∆
Reply briefly: the number, and no unit.

The examples below pair each entry with its known result.
Seq text: KPKKPKGRAYKRLLYTR [RPS30A]
protein stability index: 3.13
//
Seq text: QAPFSTSTKDKNSSTSN [MED1]
protein stability index: 3.11
//
Seq text: LLRSRLATRRVLQEYRL [RPO21]
protein stability index: 2.62
//
Seq text: NCFFDVIVPQIVLDEVR [DIS3]
protein stability index: 1.62
//
Seq text: VKKPTFTFGQSTSENKI [YOR098C/NUP1]
protein stability index: 3.02
//
Seq text: NATVNLAMEAILNELEV [YJR042W/NUP85]
protein stability index: 2.7
//
Seq text: IKDLQRAINKVLCTRLR [SIR2]
protein stability index: 1.78
//
Seq text: SNKSNSTNESNKSISDE [SSN2]
protein stability index: 3.04
//
Seq text: VKEYQLRDRNFSATGNF [RPL11A]
protein stability index: 3.29
//
Seq text: LERARDVNIVNRRLVYS [YCG1]
protein stability index: 2.44

# protein stability index lookup, item IWVGEWKEVLAHNPELE [RPO31] 3

Note, next up: MPPKKSWRNITNLSGGE [SMC4] 2.69

Note, next up: VSTPEKWDITTRNSNNL [BRR2] 3.27

Note, next up: QQRIVSAYEASMVYSNV [RRP4] 2.32

Note, next up: LDFQTNKRLCDEIATIQ [RPS17A] 2.53

Note, next up: NDICSVENYETSSAFFY [SIR4] 2.82

Note, next up: TMIKKTTLVTRREELQQ [SMC3] 2.88

Note, next up: YKDVSDLIRSESMLHLS [IRR1] 2

Note, next up: NTENNDPDIPMTIDLEP [IRR1] 3.07

----------
# Experiment notes: protein stability index of a GFP-peptide fusion (yeast GPS) (PSI 1-4); higher = more stable; sorted into four equal gates, so the index is relative within each strain
# Reported conditions: pdr5∆
Collected protein stability index values appear next to each entry.
Reply briefly: the number, and no unit.

The examples below pair each entry with its known result.
Seq text: KSGIPEFTPADPNLSFE [SSN2]
protein stability index: 3.04
--
Seq text: QRQKTYVERFETQLKVV [SMC1]
protein stability index: 2.51
--
Seq text: TITNSSSSSDIIVPDLI [YML103C/NUP188]
protein stability index: 3.07

Could you now consider this next sequence?
# protein stability index lookup, item SNQERCHDEGNDMLQRN [RRI1] 3.2

----------
# Experiment notes: protein stability index of a GFP-peptide fusion (yeast GPS) (PSI 1-4); higher = more stable; sorted into four equal gates, so the index is relative within each strain
# Reported conditions: pdr5∆
Collected protein stability index values appear next to each entry.
Reply briefly: the number, and no unit.

The examples below pair each entry with its known result.
Seq text: SYINVTFRAVVFKPFLG [RPC25]
protein stability index: 1.95
--
Seq text: SGELLQGIVRVYSKQAT [MCD1]
protein stability index: 2.17

# protein stability index lookup, item MVLRNVMEYDVKFYEIF [SRB8] 2

----------
# Experiment notes: protein stability index of a GFP-peptide fusion (yeast GPS) (PSI 1-4); higher = more stable; sorted into four equal gates, so the index is relative within each strain
# Reported conditions: doa10∆
Collected protein stability index values appear next to each entry.
Reply briefly: the number, and no unit.

The examples below pair each entry with its known result.
Seq text: ERLTNSLMMNGRNNGKK [RPS5]
protein stability index: 2.98

Seq text: LGNVDAFQLADGIHYIL [PRP8]
protein stability index: 2.74

Seq text: LDKIYTRPISSQVLDLA [SMC2]
protein stability index: 1.53

Seq text: KALRRKIYINLALGSHN [SSN2]
protein stability index: 3.05

Seq text: KKEYIELDILNKGWKLQ [SRB4]
protein stability index: 2.29

# protein stability index lookup, item KNAAESSYMGKHWTEKS [PRP28] 3.17

Note, next up: NFPVRQWSIEIVLLDDE [TAF14] 1.57

Note, next up: KKECALLISYGVSIENE [SRB4] 1.75

Note, next up: PEREVLVRELYQWRDLI [RRP6] 2.91

Note, next up: LAAIVSTVIEEFTLFMD [YGL172W/NUP49] 2.21

Note, next up: AVAGLTADAEILINTAR [PRE9] 2.98

----------
# Experiment notes: protein stability index of a GFP-peptide fusion (yeast GPS) (PSI 1-4); higher = more stable; sorted into four equal gates, so the index is relative within each strain
# Reported conditions: pdr5∆
Measured protein stability index determines class: lowest: < 2; middle: ≥ 2 and < 3; highest: ≥ 3

These solved cases illustrate the format of a correct answer.
Seq text: SIDFRTYRCSIKNLPAD [SRB2]
Assigned category: middle
--
Seq text: SEINEILARNDEEMAVL [SNF2]
Assigned category: middle
--
Seq text: QHDKMVDKIFEKVNNNA [SWI1]
Assigned category: middle
--
Seq text: DSSVEDSTDNENSGKEM [LIN1]
Assigned category: highest
--
Seq text: MTLKEMYQMITMGGNAE [SMC4]
Assigned category: middle

Category of MKEDGLSFVDIVLSKAA [SIR4] : middle

Note, next up: AVEKTLALGCHFQDQKN [POP7] highest
